System: 328373-195-R-J1-PDC complex spheroids, viability % test/control
Test: Anticancer human tumor 328373-195-R-J1-PDC patient-derived head and neck squamous carcinoma cell line growth inhibition [CLK]
Details: curve of first compound; second compound 0.1 µM
pIC50: −log10 of the molar value.
Parameter pIC50: see the listing below.

Problem: // lookup pIC50 for Nc1ccccc1NC(=O)c1ccc(CNC(=O)OCc2cccnc2)cc1 + CNC(=O)c1ccc(Nc2nc(OC3CCCC3)c3c(-c4ccc5nc(C)oc5c4)c[nH]c3n2)c(OC)c1
Solution: > 7.50

Problem: Would you kindly repeat that for CC(=O)O[C@H]1C(=O)[C@@]2(C)[C@H]([C@H](OC(=O)c3ccccc3)[C@]3(O)C[C@H](OC(=O)[C@H](O)[C@@H](NC(=O)c4ccccc4)c4ccccc4)C(C)=C1C3(C)C)[C@]1(OC(C)=O)CO[C@@H]1C[C@@H]2O + CNC(=O)c1ccc(Nc2nc(OC3CCCC3)c3c(-c4ccc5nc(C)oc5c4)c[nH]c3n2)c(OC)c1 ?
Solution: > 7.50

Continuing:
Problem: // lookup pIC50 for COc1c(OCCCN2CCOCC2)ccc2c3n(c(=NC(=O)c4cnc(N)nc4)nc12)CCN3 + CN1CCN(c2cc(C(=O)Nc3cc4cc(-c5cnn(C)c5)ccc4cn3)ccn2)CC1
Solution: 7.10

---

System: 328373-195-R-J1-PDC complex spheroids, viability % test/control
Test: Anticancer human tumor 328373-195-R-J1-PDC cell line growth inhibition [CLK];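 note: spheroids exposed to the agents for 7 days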
Conditions: curve of first compound; second compound 0.0316 µM
Parameter pIC50: see the listing below.
Just the number, please; pIC50 means minus log10 of the concentration in mol/L.

Problem: // lookup pIC50 for CC(C)CC(NC(=O)C(Cc1ccccc1)NC(=O)c1cnccn1)B(O)O (stereo unspecified) + CN1CCN(c2cc(C(=O)Nc3cc4cc(-c5cnn(C)c5)ccc4cn3)ccn2)CC1
Solution: 8.75

Problem: Would you kindly repeat that for COC1C=CCC(C)C(C)S(=O)(=O)NC(=O)c2ccc3c(c2)N(CC2CCC21)CC1(CCCc2cc(Cl)ccc21)CO3 (stereo unspecified) + CNC(=O)c1ccc(Nc2nc(OC3CCCC3)c3c(-c4ccc5nc(C)oc5c4)c[nH]c3n2)c(OC)c1 ?
Solution: 5.37

Continuing:
Problem: // lookup pIC50 for O=c1[nH]cc(F)c(=O)[nH]1 + CN1CCN(c2cc(C(=O)Nc3cc4cc(-c5cnn(C)c5)ccc4cn3)ccn2)CC1
Solution: 7.23

Problem: Would you kindly repeat that for C=CC(=O)Nc1cc(Nc2nccc(-c3cn(C)c4ccccc34)n2)c(OC)cc1N(C)CCN(C)C + CNC(=O)c1ccc(Nc2nc(OC3CCCC3)c3c(-c4ccc5nc(C)oc5c4)c[nH]c3n2)c(OC)c1 ?
Solution: 7.40

Problem: Would you kindly repeat that for COc1c(OCCCN2CCOCC2)ccc2c3n(c(=NC(=O)c4cnc(N)nc4)nc12)CCN3 + CNC(=O)c1ccc(Nc2nc(OC3CCCC3)c3c(-c4ccc5nc(C)oc5c4)c[nH]c3n2)c(OC)c1 ?
Solution: 6.85

Problem: Would you kindly repeat that for C#Cc1c(F)ccc2cc(O)cc(-c3ncc4c(N5CC6CCC(C5)N6)nc(OCC56CCCN5CC(F)C6)nc4c3F)c12 (stereo unspecified) + CNC(=O)c1ccc(Nc2nc(OC3CCCC3)c3c(-c4ccc5nc(C)oc5c4)c[nH]c3n2)c(OC)c1 ?
Solution: 5.29

Problem: Would you kindly repeat that for CC(C)CC(NC(=O)C(Cc1ccccc1)NC(=O)c1cnccn1)B(O)O (stereo unspecified) + CNC(=O)c1ccc(Nc2nc(OC3CCCC3)c3c(-c4ccc5nc(C)oc5c4)c[nH]c3n2)c(OC)c1 ?
Solution: 8.84

Problem: Would you kindly repeat that for CC1COCCN1c1cc(C2(S(C)(=N)=O)CC2)nc(-c2ccnc3[nH]ccc23)n1 (stereo unspecified) + CNC(=O)c1ccc(Nc2nc(OC3CCCC3)c3c(-c4ccc5nc(C)oc5c4)c[nH]c3n2)c(OC)c1 ?
Solution: 6.67

Problem: Would you kindly repeat that for COC1C=CCC(C)C(C)S(=O)(=O)NC(=O)c2ccc3c(c2)N(CC2CCC21)CC1(CCCc2cc(Cl)ccc21)CO3 (stereo unspecified) + CN1CCN(c2cc(C(=O)Nc3cc4cc(-c5cnn(C)c5)ccc4cn3)ccn2)CC1 ?
Solution: 5.03

Problem: Would you kindly repeat that for CCN1CCN(Cc2ccc(Nc3ncc(F)c(-c4cc(F)c5nc(C)n(C(C)C)c5c4)n3)nc2)CC1 + CNC(=O)c1ccc(Nc2nc(OC3CCCC3)c3c(-c4ccc5nc(C)oc5c4)c[nH]c3n2)c(OC)c1 ?
Solution: 7.26

Problem: Would you kindly repeat that for CC1(C)CCC(CN2CCN(c3ccc(C(=O)NS(=O)(=O)c4ccc(NCC5CCOCC5)c([N+](=O)[O-])c4)c(Oc4cnc5[nH]ccc5c4)c3)CC2)=C(c2ccc(Cl)cc2)C1 + CN1CCN(c2cc(C(=O)Nc3cc4cc(-c5cnn(C)c5)ccc4cn3)ccn2)CC1 ?
Solution: 5.19

---

Parameter viability, T/C: see the listing below.
Test system: 328373-195-R-J1-PDC complex spheroids, viability % test/control
Test: Anticancer human tumor 328373-195-R-J1-PDC cell line growth inhibition [CLK];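 note: spheroids exposed to the agents for 7 days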
Conditions: second compound 0.316 µM; first compound 1 µM; stronger effect = lower value
Write the answer as a number in %, unit excluded.

Problem: // lookup viability, T/C for C=CC(=O)N1CCN(c2nc(=O)n(-c3c(C)ccnc3C(C)C)c3nc(-c4c(O)cccc4F)c(F)cc23)C(C)C1 (stereo not given) + CN1CCN(c2cc(C(=O)Nc3cc4cc(-c5cnn(C)c5)ccc4cn3)ccn2)CC1
Solution: 43.2

Problem: Would you kindly repeat that for CCc1c2c(nc3ccc(O)cc13)-c1cc3c(c(=O)n1C2)COC(=O)[C@]3(O)CC + CNC(=O)c1ccc(Nc2nc(OC3CCCC3)c3c(-c4ccc5nc(C)oc5c4)c[nH]c3n2)c(OC)c1 ?
Solution: 0.68

Problem: Would you kindly repeat that for COc1cccc2c1C(=O)c1c(O)c3c(c(O)c1C2=O)CC(O)(C(=O)CO)CC3OC1CC(N)C(O)C(C)O1 (stereo not given) + CNC(=O)c1ccc(Nc2nc(OC3CCCC3)c3c(-c4ccc5nc(C)oc5c4)c[nH]c3n2)c(OC)c1 ?
Solution: 0.07

Problem: Would you kindly repeat that for C=CC(=O)N1CCN(c2nc(=O)n(-c3c(C)ccnc3C(C)C)c3nc(-c4c(O)cccc4F)c(F)cc23)C(C)C1 (stereo not given) + CNC(=O)c1ccc(Nc2nc(OC3CCCC3)c3c(-c4ccc5nc(C)oc5c4)c[nH]c3n2)c(OC)c1 ?
Solution: 10.4

Okay, now this compound:
Problem: // lookup viability, T/C for CC(CO)NC(=O)c1cc(-c2ccc(Cl)cc2)nn(-c2cnn(C)c2)c1=O (stereo not given) + CNC(=O)c1ccc(Nc2nc(OC3CCCC3)c3c(-c4ccc5nc(C)oc5c4)c[nH]c3n2)c(OC)c1
Solution: 11.8

---

Parameter IC50: see the listing below.
Test system: 328373-195-R-J1-PDC complex spheroids, viability % test/control
Assay: Anticancer human tumor 328373-195-R-J1-PDC cell line growth inhibition [CLK];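 note: spheroids exposed to the agents for 7 days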
Details: curve of first compound; second compound 0.0316 µM

Solved entries (count: 3):
Problem: State its IC50 on 328373-195-R-J1-PDC complex spheroids, viability % test/control: C=CC(=O)N1CCN(c2nc(=O)n(-c3c(C)ccnc3C(C)C)c3nc(-c4c(O)cccc4F)c(F)cc23)C(C)C1 (stereo not given) + CN1CCN(c2cc(C(=O)Nc3cc4cc(-c5cnn(C)c5)ccc4cn3)ccn2)CC1
Solution: > 10000 nM

Problem: Would you kindly repeat that for C=C(F)C(=O)N1CCN(c2nc(OCC3CCCN3C)nc3c2CCN(c2cccc4cccc(Cl)c24)C3)CC1CC#N (stereo not given) + CN1CCN(c2cc(C(=O)Nc3cc4cc(-c5cnn(C)c5)ccc4cn3)ccn2)CC1 ?
Solution: 4080 nM

Problem: Would you kindly repeat that for Cn1ncnc1[C@H]1c2n[nH]c(=O)c3cc(F)cc(c23)N[C@@H]1c1ccc(F)cc1 + CNC(=O)c1ccc(Nc2nc(OC3CCCC3)c3c(-c4ccc5nc(C)oc5c4)c[nH]c3n2)c(OC)c1 ?
Solution: 40.6 nM

Continuing:
Problem: State its IC50 on 328373-195-R-J1-PDC complex spheroids, viability % test/control: COc1cccc2c1C(=O)c1c(O)c3c(c(O)c1C2=O)CC(O)(C(=O)CO)CC3OC1CC(N)C(O)C(C)O1 (stereo not given) + CN1CCN(c2cc(C(=O)Nc3cc4cc(-c5cnn(C)c5)ccc4cn3)ccn2)CC1
Solution: < 31.6 nM

Problem: Would you kindly repeat that for O=C(c1cc(Cc2n[nH]c(=O)c3ccccc23)ccc1F)N1CCN(C(=O)C2CC2)CC1 + CNC(=O)c1ccc(Nc2nc(OC3CCCC3)c3c(-c4ccc5nc(C)oc5c4)c[nH]c3n2)c(OC)c1 ?
Solution: > 10000 nM

Problem: Would you kindly repeat that for CCCS(=O)(=O)Nc1ccc(F)c(C(=O)c2c[nH]c3ncc(-c4ccc(Cl)cc4)cc23)c1F + CN1CCN(c2cc(C(=O)Nc3cc4cc(-c5cnn(C)c5)ccc4cn3)ccn2)CC1 ?
Solution: > 10000 nM
